Molecular target: UniProtKB O60603
Sequence (O60603 whole entry): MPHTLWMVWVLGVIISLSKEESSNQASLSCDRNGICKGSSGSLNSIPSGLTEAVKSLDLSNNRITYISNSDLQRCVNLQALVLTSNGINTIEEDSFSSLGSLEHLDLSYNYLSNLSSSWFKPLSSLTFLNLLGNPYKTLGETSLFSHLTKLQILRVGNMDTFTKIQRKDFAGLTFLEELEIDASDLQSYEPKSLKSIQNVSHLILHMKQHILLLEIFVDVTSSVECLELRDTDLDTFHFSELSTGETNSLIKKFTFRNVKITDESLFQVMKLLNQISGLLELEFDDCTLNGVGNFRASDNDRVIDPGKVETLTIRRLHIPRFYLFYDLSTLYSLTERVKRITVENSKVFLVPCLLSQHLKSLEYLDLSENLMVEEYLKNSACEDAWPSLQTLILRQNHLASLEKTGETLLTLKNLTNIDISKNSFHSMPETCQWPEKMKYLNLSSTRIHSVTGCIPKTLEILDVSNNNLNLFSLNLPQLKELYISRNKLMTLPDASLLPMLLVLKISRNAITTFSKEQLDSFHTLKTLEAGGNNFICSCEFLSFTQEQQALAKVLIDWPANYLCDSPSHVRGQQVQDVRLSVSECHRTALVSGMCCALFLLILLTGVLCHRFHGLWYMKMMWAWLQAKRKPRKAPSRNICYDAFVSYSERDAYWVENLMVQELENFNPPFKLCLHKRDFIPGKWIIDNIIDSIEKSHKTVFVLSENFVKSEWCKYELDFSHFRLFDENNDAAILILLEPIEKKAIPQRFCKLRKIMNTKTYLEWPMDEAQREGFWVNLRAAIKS
Where a SMILES comes first, the peptide text is derived from it. The star is where a group is joined. X1 = CCCCCCCCCCCCCCCC(=O)OC[C@H](C*)OC(=O)CCCCCNC(=O)CCCCCCCC; X2 = CCCCCCCCCCCCCCCC(=O)OC[C@H](C*)OC(=O)CCNC(=O)CCCCCCCCCCC; X3 = CCCCCCCCCCCCCCCC(=O)OC[C@H](C*)OC(=O)CCCNC(=O)CCCCCCCCCC; X4 = CCCCCCCCCCCCCCCC(=O)OC[C@H](C*)OC(=O)CCCCCCNC(=O)CCCCCCC; X5 = CCCCCCCCCCCCCCCC(=O)OC[C@H](C*)OC(=O)CCCCNC(=O)CCCCCCCCC; X6 = CCCCCCCCCCCCCCCC(=O)O[C@H](COC(=O)CCCCCCCCCCNC(=O)CCC)C*; X7 = CCCCCCCCCCCCCCCC(=O)O[C@H](COC(=O)CCCCCCCCNC(=O)CCCCC)C*; X8 = CCCCCCCCCCCCCCCC(=O)O[C@H](COC(=O)CCCCCCCCCCCNC(=O)CC)C*; X9 = CCCCCCCCCCCCCCCC(=O)O[C@H](COC(=O)CCCCCCCCCNC(=O)CCCC)C*
ASSAY READOUT: pIC50
Answers are plain numbers, as −log10 of the molar value.

CCCCCCCCCCCCCCCC(=O)O[C@H](COC(=O)CCCCCCCCCNC(=O)CCCC)CSC[C@H](N)C(=O)N[C@@H](CO)C(=O)N[C@@H](CCCCN)C(=O)N[C@@H](CCCCN)C(=O)N[C@@H](CCCCN)C(=O)N[C@@H](CCCCN)C(=O)O (H-C(X9)SKKKK-OH); 5.19
CCCCCCCCCCCCCCCC(=O)O[C@H](COC(=O)CCCCCCCCCCCNC(=O)CC)CSC[C@H](N)C(=O)N[C@@H](CO)C(=O)N[C@@H](CCCCN)C(=O)N[C@@H](CCCCN)C(=O)N[C@@H](CCCCN)C(=O)N[C@@H](CCCCN)C(=O)O (H-C(X8)SKKKK-OH); 5.40
CCCCCCCCCCCCCCCC(=O)OC[C@H](CSC[C@H](N)C(=O)N[C@@H](CO)C(=O)N[C@@H](CCCCN)C(=O)N[C@@H](CCCCN)C(=O)N[C@@H](CCCCN)C(=O)N[C@@H](CCCCN)C(=O)O)OC(=O)CCCCNC(=O)CCCCCCCCC (H-C(X5)SKKKK-OH); 5.33
CCCCCCCCCCCCCCCC(=O)OC[C@H](CSC[C@H](N)C(=O)N[C@@H](CO)C(=O)N[C@@H](CCCCN)C(=O)N[C@@H](CCCCN)C(=O)N[C@@H](CCCCN)C(=O)N[C@@H](CCCCN)C(=O)O)OC(=O)CCCCCCNC(=O)CCCCCCC (H-C(X4)SKKKK-OH); 5.47
CCCCCCCCCCCCCCCC(=O)OC[C@H](CSC[C@H](N)C(=O)N[C@@H](CO)C(=O)N[C@@H](CCCCN)C(=O)N[C@@H](CCCCN)C(=O)N[C@@H](CCCCN)C(=O)N[C@@H](CCCCN)C(=O)O)OC(=O)CCCCCNC(=O)CCCCCCCC (H-C(X1)SKKKK-OH); 5.32
CCCCCCCCCCCCCCCC(=O)OC[C@H](CSC[C@H](N)C(=O)N[C@@H](CO)C(=O)N[C@@H](CCCCN)C(=O)N[C@@H](CCCCN)C(=O)N[C@@H](CCCCN)C(=O)N[C@@H](CCCCN)C(=O)O)OC(=O)CCNC(=O)CCCCCCCCCCC (H-C(X2)SKKKK-OH); 5.77
CCCCCCCCCCCCCCCC(=O)OC[C@H](CSC[C@H](N)C(=O)N[C@@H](CO)C(=O)N[C@@H](CCCCN)C(=O)N[C@@H](CCCCN)C(=O)N[C@@H](CCCCN)C(=O)N[C@@H](CCCCN)C(=O)O)OC(=O)CCCNC(=O)CCCCCCCCCC (H-C(X3)SKKKK-OH); 5.71
CCCCCCCCCCCCCCCC(=O)O[C@H](COC(=O)CCCCCCCCNC(=O)CCCCC)CSC[C@H](N)C(=O)N[C@@H](CO)C(=O)N[C@@H](CCCCN)C(=O)N[C@@H](CCCCN)C(=O)N[C@@H](CCCCN)C(=O)N[C@@H](CCCCN)C(=O)O (H-C(X7)SKKKK-OH); 5.12

Here is the next item to consider.
// query pIC50 value for entry CCCCCCCCCCCCCCCC(=O)O[C@H](COC(=O)CCCCCCCCCCNC(=O)CCC)CSC[C@H](N)C(=O)N[C@@H](CO)C(=O)N[C@@H](CCCCN)C(=O)N[C@@H](CCCCN)C(=O)N[C@@H](CCCCN)C(=O)N[C@@H](CCCCN)C(=O)O (H-C(X6)SKKKK-OH)
5.36
